Attribution: paper PMC12693182

Tested on: Chinese hamster Ovary cells (CHO-K1)
Assay: Cytotoxicity assay (WST-1 / Neutral Red)
Type: cell-based
Conditions: Cricetulus griseus, 24 h, 24-h incubation
measured-metric: IC50 (µg/mL)
I only need the number, in µg/mL, no unit after it.

Qu. What measured IC50 is associated with CCCCOC(=O)CCC(C)C1CCC2C3CCC4CC(NCCCNCCCCNCCCN)CCC4(C)C3CC(O)C12C (stereo not drawn) on Chinese hamster Ovary cells (CHO-K1)?
Ans. 4

Qu. What measured IC50 is associated with COC(=O)CCC(C)C1CCC2C3CCC4CC(NCCCNCCCCNCCCN)CCC4(C)C3CC(O)C12C (stereo not drawn) on Chinese hamster Ovary cells (CHO-K1)?
Ans. 8
